Test system: OVCAR-8 ovarian
Test: NCI tumour cell line growth inhibition, 48 h
MEASUREMENT_TYPE: TGI

Record excerpt, results attached:
MOLECULE	TESTED_ON	TGI
O=C(NS(=O)(=O)OCC(Cl)(Cl)Cl)SCCC(F)(F)C(F)(F)C(F)(F)C(F)(F)C(F)(F)C(F)(F)F	OVCAR-8 ovarian	> 100 µM
C[C@H]1C2Cc3cc(N)ccc3[C@@]1(C)CCN2CCc1ccccc1	OVCAR-8 ovarian	> 100 µM
O=C1CC(C[C@H](O)C2CCCCC2O)CC(=O)N1Cc1ccccc1 (stereo partly drawn)	OVCAR-8 ovarian	> 100 µM
C1CSCCSCCS1	OVCAR-8 ovarian	> 100 µM
Cc1cc(C)nc(NS(=O)(=O)c2ccc(NNC(=O)c3cccc4c(=O)c5ccccc5[nH]c34)cc2)n1	OVCAR-8 ovarian	> 100 µM
CC(=O)n1c2c(c(=O)n1-c1ccccc1)S(=O)CCC2 (stereo not drawn)	OVCAR-8 ovarian	> 100 µM
CCOC(=O)NC1CN2CCC1CC2 (stereo not drawn)	OVCAR-8 ovarian	> 100 µM
O=C(/C=C/C=C/c1ccccc1)c1ccc2c(c1)CCCC2	OVCAR-8 ovarian	> 100 µM

Prompt: Would you mind telling me what TGI value was observed for C[C@@]12CCC3C1C=C1C(=O)c4cc(O)ccc4C(=O)[C@]1(O2)[C@@]3(C)C=O ?
Response: 42.6 µM

Prompt: Data request, read-out TGI, for N#CC1(C#N)C2CCCCC23OC(=N)C1(C#N)C(c1ccccc1)O3 (stereo not drawn)
Response: 48.9 µM

Prompt: Consider the molecule shown here: Cc1ccc(-c2c3c(n(C4OC(CO)C(O)C(O)C4O)c(=S)c2C#N)CC(C)(C)CC3=O)cc1 (stereo not drawn) What is its recorded TGI?
Response: > 100 µM

---

System: OVCAR-4 ovarian
Test: NCI tumour cell line growth inhibition, 48 h
Parameter TGI: see the listing below.

COMPOUND	TGI
O=C(NCCCCN=c1cccccc1NCCCCNC(=O)OCc1ccccc1)OCc1ccccc1	57.5 µM
C[C@@H]1CCC2[C@@H](C)[C@@H](OCCO[C@H]3OC4O[C@@]5(C)CCC6[C@H](C)CCC([C@H]3C)[C@@]46OO5)OC3O[C@@]4(C)CCC1[C@]32OO4 (stereo not given in full)	> 100 µM
O=c1cc2oc3cc(O)c(O)cc3c(-c3ccccc3O)c-2cc1O	> 100 µM
CCOC(=O)NC1CN2CCC1CC2 (stereo not given)	> 100 µM

Okay, next one:
Prompt: So what does the record say about TGI for O=C1CC(C[C@H](O)C2CCCCC2O)CC(=O)N1Cc1ccccc1 (stereo not given in full) ?
Response: > 100 µM

---

TGI: recorded values
Tested on: CAKI-1 renal
Test: NCI tumour cell line growth inhibition, 48 h

Sample records with TGI:
MOLECULE	TGI
O=c1c2c(-c3ccccc3)onc2n(-c2ccccc2)c(=O)n1-c1ccccc1	> 100 µM
CCN(CC)c1nc(-c2ccc(Cl)cc2Cl)nc2ccccc12	62.4 µM
CCCNC(=S)/N=C/c1c(O)c2ccccc2[nH]c1=O	> 100 µM
CCCCCC(/C=C/C1CCC(=O)C1CC#C[Si](C)(C)C)OCc1ccccc1 (configuration not stated)	36.8 µM
CCCCn1c(C)c2c(c1C)C(=O)N(CC(O)CN1CCc3ccccc3C1)C2=O (configuration not stated)	> 100 µM
CC[C@@]12N=C(N(C)C)C[C@]1(O)ON=C2C	> 100 µM

Prompt: Value lookup for TGI; key = CC1=C2CCCC2=C/C(=N/Nc2ccc([N+](=O)[O-])cc2[N+](=O)[O-])CC1
Response: > 100 µM
